Ref: paper PMC8158513

METHOD SUMMARY: in vivo
MEASUREMENT PARAMETERS: New Zealand White, rabbit, in vivo, topical or ocular, Tmax SE, corneal tissue (CT)
Description: A total number of 59 rabbits were included in this part of the study. All rabbits were consecutively assigned to one of the two study groups. […] Group 2 animals were dosed with 0.15% candesartan eye drops, while 23 rabbits received a single dose and 5 rabbits received multiple doses of the eye drops. […] Both, the eye-tissue and plasma samples were shipped to Nucro-Technics (Nucro-Technics, 2000 Ellesmere Road, Unit #16, Scarborough, ON, Canada) for quantitative analysis. […]
REPORTED ENDPOINT: Tmax (h)
Write it as a number; the unit h goes unstated.

Identify the reported Tmax for the following entry. CCCCC1=NC2(CCCC2)C(=O)N1Cc1ccc(-c2ccccc2-c2nnn[nH]2)cc1
1.5
